# pEC50 per entry
Molecular target: CFTR (Homo sapiens, UniProt P13569)
Sequence (P13569 with tags, fused parts or gaps DEL508-508): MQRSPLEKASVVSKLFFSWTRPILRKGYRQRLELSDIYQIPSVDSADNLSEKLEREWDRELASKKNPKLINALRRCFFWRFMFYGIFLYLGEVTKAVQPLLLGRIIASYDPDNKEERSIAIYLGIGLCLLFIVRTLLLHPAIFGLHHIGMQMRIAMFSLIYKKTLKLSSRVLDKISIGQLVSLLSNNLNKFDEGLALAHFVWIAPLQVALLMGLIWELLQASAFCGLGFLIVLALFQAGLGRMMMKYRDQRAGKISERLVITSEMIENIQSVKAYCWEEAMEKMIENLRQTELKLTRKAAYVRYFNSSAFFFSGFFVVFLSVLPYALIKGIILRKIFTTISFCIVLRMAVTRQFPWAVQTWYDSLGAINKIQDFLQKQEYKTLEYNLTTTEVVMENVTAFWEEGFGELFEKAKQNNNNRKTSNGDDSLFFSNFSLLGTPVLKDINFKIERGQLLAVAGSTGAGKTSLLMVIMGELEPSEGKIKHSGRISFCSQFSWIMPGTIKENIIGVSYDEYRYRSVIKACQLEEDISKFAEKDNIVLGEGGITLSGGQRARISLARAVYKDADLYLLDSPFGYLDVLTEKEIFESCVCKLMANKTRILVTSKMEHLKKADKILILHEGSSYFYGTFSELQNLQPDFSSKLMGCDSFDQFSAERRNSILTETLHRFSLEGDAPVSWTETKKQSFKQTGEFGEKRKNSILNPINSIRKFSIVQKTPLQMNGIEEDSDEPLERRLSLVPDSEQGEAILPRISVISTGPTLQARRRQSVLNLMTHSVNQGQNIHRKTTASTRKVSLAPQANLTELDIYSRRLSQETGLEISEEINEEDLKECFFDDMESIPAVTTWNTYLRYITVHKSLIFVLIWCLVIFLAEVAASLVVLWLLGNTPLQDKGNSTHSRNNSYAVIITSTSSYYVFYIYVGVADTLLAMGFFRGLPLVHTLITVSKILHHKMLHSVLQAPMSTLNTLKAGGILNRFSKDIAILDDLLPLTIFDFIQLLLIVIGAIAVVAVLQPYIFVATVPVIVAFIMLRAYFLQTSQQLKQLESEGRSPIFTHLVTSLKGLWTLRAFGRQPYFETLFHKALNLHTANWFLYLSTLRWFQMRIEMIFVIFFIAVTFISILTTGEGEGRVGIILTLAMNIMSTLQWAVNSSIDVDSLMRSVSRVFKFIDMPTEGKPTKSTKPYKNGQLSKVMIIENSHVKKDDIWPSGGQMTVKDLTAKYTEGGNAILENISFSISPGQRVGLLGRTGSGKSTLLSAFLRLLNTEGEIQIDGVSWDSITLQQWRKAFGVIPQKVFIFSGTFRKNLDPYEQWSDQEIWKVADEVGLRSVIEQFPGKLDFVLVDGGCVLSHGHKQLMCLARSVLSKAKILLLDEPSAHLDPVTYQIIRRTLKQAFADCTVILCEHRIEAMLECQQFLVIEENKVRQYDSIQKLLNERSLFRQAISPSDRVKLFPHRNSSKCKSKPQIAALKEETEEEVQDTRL
Assay: Membrane Potential Dye, Enteroid Assay B
Format: cell-based
Conditions: Table 9; read-out: Ent. B EC50
pEC50: −log10 of the molar value.

Example cases with answers are listed next.
- compound: "Cc1cccc(C)c1-c1cc2nc(n1)NS(=O)(=O)c1cccc(c1)C(=O)NCC(CC(C)C)(CC(C)C)CO2 [Compound 496]"
  target: "CFTR (Homo sapiens, UniProt P13569)"
  pEC50: "> 6.00"
- compound: "C=CCCCC[C@@H]1COc2cc(-c3ccccc3C=C)nc(n2)NS(=O)(=O)c2cccc(c2)C(=O)N1 [Compound 221]"
  target: "CFTR (Homo sapiens, UniProt P13569)"
  pEC50: "> 6.00"
- compound: "C=CCCCCCC[C@@H]1COc2cc(-c3c(C)cccc3C=C)nc(n2)NS(=O)(=O)c2cccc(c2)C(=O)N1 [Compound 215]"
  target: "CFTR (Homo sapiens, UniProt P13569)"
  pEC50: "> 6.00"
- compound: "Cc1cccc(C)c1-c1cc2nc(n1)NS(=O)(=O)c1cccc(c1)C(=O)N[C@@H]1CN(c3ccc(C(F)(F)F)cn3)C[C@H]1O2 [Compound 62]"
  target: "CFTR (Homo sapiens, UniProt P13569)"
  pEC50: "> 6.00"
- compound: "Cc1cccc(C)c1-c1cc2nc(n1)NS(=O)(=O)c1cccc(c1)C(=O)N[C@@H]1CN(CCC3(C(F)(F)F)CC3)C[C@H]1O2 [Compound 378]"
  target: "CFTR (Homo sapiens, UniProt P13569)"
  pEC50: "> 6.00"

We next turn to a different compound, shown below.
// pEC50 lookup, key: Cc1cccc(CCC(C)C)c1-c1cc2nc(n1)NS(=O)(=O)c1cccc(c1)C(=O)N[C@H](CC(C)C)CO2 [Compound 389]
> 6.00
